Test system: GADD45a-GFP reporter in TK6 human lymphoblastoid cell line
Experiment: GreenScreen HC genotoxicity (GADD45a-GFP reporter)
Format: cell-based
Details: GreenScreen HC, positive or negative
measured-metric: Genotoxicity

> print(dat)
                                   compound                                       tgt  observed.result
1  C[C@]1(O)CC[C@H](NS(=O)(=O)c2ccc(-c3c(F)cc(F)cc3F)cc2)CC1  GADD45a-GFP reporter in TK6 human lymphoblastoid cell line         Negative
2  C[C@]1(O)CC[C@@H](NS(=O)(=O)c2ccc(-c3ncc(F)cc3F)c(F)c2)CC1  GADD45a-GFP reporter in TK6 human lymphoblastoid cell line         Negative
3  C[C@]1(O)CC[C@H](NS(=O)(=O)c2ccc(-c3ccc(F)cc3F)cc2)CC1 [ABD900, reference compound]  GADD45a-GFP reporter in TK6 human lymphoblastoid cell line         Negative

---

Test: Human Liver Microsomal Stability
Assay type: in vitro ADME
Conditions: both sexes, pooled liver microsomes, pH 7.4, human liver microsomes 0.25 mg/mL protein, 1 μM compound, 5 time points 0-60 min, one replicate, read-out: T1/2 (1)
Could you mark each record Fulfilled if its half-life at 1 μM falls strictly under 3 h, and Not fulfilled if it equals or exceeds it?

> print(dat)
                                   compound   answer.label
1  C[C@]1(O)CC[C@H](NS(=O)(=O)c2ccc(-c3ncc(Cl)cc3Cl)cc2)CC1  Not fulfilled
2  C[C@]1(O)CC[C@H](NS(=O)(=O)c2ccc(-c3ccc(Cl)cc3C#N)cc2)CC1      Fulfilled
3  Cc1cc(S(=O)(=O)NC2CCC(C)(O)CC2)ccc1-c1ccc(F)cc1F (single isomer, unassigned) [REF001, reference compound]      Fulfilled
4  Cc1cc(S(=O)(=O)N[C@H]2CC[C@H](O)CC2)ccc1-c1ccc(F)cc1F  Not fulfilled
5  O=S(=O)(N[C@H]1CC[C@H](O)CC1)c1ccc(-c2ncc(Cl)cc2Cl)cc1 [ABD836, reference compound]  Not fulfilled
6  C[C@]1(O)CC[C@H](NS(=O)(=O)c2ccc(-c3ncc(Cl)cc3Cl)c(F)c2)CC1      Fulfilled

---

System: GADD45a-GFP reporter in TK6 human lymphoblastoid cell line
Assay: GreenScreen HC genotoxicity (GADD45a-GFP reporter)
Assay type: cell-based
Conditions: GreenScreen HC, positive or negative
measured-metric: Genotoxicity

> print(dat)
                            molecule.smiles  observed.result
1  C[C@]1(O)CC[C@@H](NS(=O)(=O)c2ccc(-c3ccc(Cl)cc3C#N)cc2)CC1         Negative
2  C[C@]1(O)CC[C@H](NS(=O)(=O)c2ccc(-c3ncc(Cl)cc3Cl)c(F)c2)CC1         Negative

---

Experiment: Maximum Tolerated Dose, Sprague-Dawley rats
Settings: rat, in vivo; female Sprague-Dawley rats, oral, ascending dose; read-out: Maximum tolerated dose, Females
Protocol: The acute safety of the compounds was assessed in rats in order to enable determination of the maximum tolerated dose (MTD), an indication of a compound's safety in animals. […] Animals were observed on at least two occasions during the first hour following dosing, approximately 30 minutes apart, and thereafter at hourly intervals for the remainder of the dosing day for at least 4 hours. […] The nature and severity, where appropriate, of the clinical signs and time were recorded at each observation. […]
# reported log10(MTD); entries follow
measured-metric: log10(MTD) (log10 of the value in mg/kg)

> print(dat)
                                   compound  observed.result
1  C[C@]1(O)CC[C@H](NS(=O)(=O)c2ccc(-c3ncc(F)cc3F)c(F)c2)CC1 [HMC-N-01-A]             1.90
2  Cc1cc(S(=O)(=O)NC2CCC(C)(O)CC2)ccc1-c1ccc(F)cc1F (single isomer, unassigned) [REF001, reference compound]             0.88
3  C[C@]1(O)CC[C@H](NS(=O)(=O)c2ccc(-c3ncc(Cl)cc3Cl)cc2)CC1 [HMC-N-03-A]             1.70
4  C[C@]1(O)CC[C@H](NS(=O)(=O)c2ccc(-c3ccc(Cl)cc3C#N)cc2)CC1 [HMC-C-01-A]             1.85
5  C[C@]1(O)CC[C@H](NS(=O)(=O)c2ccc(-c3c(F)cc(F)cc3F)cc2)CC1 [HMC-C-03-A]             1.48
6  Cc1cc(S(=O)(=O)N[C@H]2CC[C@H](O)CC2)ccc1-c1ccc(F)cc1F [ABD735]             1.30
7  C[C@]1(O)CC[C@@H](NS(=O)(=O)c2ccc(-c3ccc(F)cc3F)cc2)CC1 [ABD899, reference compound]             1.48
